Target: UniProt Q14500
Sequence (Q14500 1-433): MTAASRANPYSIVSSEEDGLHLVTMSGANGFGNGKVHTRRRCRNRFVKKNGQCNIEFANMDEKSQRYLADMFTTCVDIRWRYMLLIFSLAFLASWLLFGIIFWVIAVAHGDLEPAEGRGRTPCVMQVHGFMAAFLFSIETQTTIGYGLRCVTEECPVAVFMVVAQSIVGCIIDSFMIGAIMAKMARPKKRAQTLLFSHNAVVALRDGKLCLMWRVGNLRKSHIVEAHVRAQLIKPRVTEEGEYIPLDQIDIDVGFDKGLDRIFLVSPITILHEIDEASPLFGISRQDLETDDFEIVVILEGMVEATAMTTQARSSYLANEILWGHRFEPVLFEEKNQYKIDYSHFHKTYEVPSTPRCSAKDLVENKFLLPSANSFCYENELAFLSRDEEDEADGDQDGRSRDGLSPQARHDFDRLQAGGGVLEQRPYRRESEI
Experiment: inside-out macropatch dose-response of channel expressed in Xenopus oocytes

COMPOUND	TESTED_SYSTEM	EC50 [µM]
CCCCCCCC(=O)OC[C@H](COP(=O)(O)O[C@@H]1[C@H](O)[C@H](O)[C@@H](OP(=O)(O)O)[C@H](OP(=O)(O)O)[C@H]1O)OC(=O)CCCCCCC [diC8 PIP2]	UniProt Q14500	6.14

* * *

Molecular target: Kir2.1 (Mus musculus, UniProt P35561, L222I)
Sequence (P35561 1-428 L222I): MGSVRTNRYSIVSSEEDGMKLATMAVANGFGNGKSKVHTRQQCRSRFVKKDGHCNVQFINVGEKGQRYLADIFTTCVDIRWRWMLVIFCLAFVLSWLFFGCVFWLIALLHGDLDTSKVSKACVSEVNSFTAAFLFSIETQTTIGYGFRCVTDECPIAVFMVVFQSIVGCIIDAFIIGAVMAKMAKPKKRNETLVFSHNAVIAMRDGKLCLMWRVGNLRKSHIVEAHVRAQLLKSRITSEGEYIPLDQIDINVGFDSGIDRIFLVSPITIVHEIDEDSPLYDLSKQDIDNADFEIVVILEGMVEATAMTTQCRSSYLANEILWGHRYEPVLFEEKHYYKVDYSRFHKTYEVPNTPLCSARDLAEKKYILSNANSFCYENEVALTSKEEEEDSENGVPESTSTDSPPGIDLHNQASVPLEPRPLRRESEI
Assay: inside-out macropatch dose-response of channel expressed in Xenopus oocytes
pEC50: −log10 of the molar value.
EXPERIMENTAL_ENDPOINT: pEC50

SMILES_NOTATION	VALUE_MEASURED
CCCCCCCC(=O)OC[C@H](COP(=O)(O)O[C@@H]1[C@H](O)[C@H](O)[C@@H](OP(=O)(O)O)[C@H](OP(=O)(O)O)[C@H]1O)OC(=O)CCCCCCC	4.85
